Experiment: Compound solubility in water
solubility below 10 µg/mL gives N; solubility at or above it gives Y.

Say whether COc1ccc(C#CCNC(=O)n2cnc3c(N4CCN(C)CC4)cccc32)cc1 [Example 339] shows solubility of 10 µg/mL or more.
Y

Say whether CN1CCN(c2cccc3c2ncn3C(=O)NCC#Cc2ccccc2)CC1 [Example 282] shows solubility of 10 µg/mL or more.
Y

Say whether CN1CCN(c2cccc3c2ncn3C(=O)NCC#CC2CC2)CC1 [Example 283] shows solubility of 10 µg/mL or more.
Y

Say whether CCCCCNC(=O)n1cnc2ccccc21 [Example 23] shows solubility of 10 µg/mL or more.
Y

Say whether COc1nc2cc(N3CCN(C4CN(C)C4)CC3)c(F)cc2n1C(=O)NCC#CC(C)C [Example 320a] shows solubility of 10 µg/mL or more.
Y

Say whether CC(C)CNC(=O)n1cnc2cc(-c3cncnc3)ccc21 [Example 16a] shows solubility of 10 µg/mL or more.
N

Say whether COc1nc2c(N3CCN(C)CC3)cccc2n1C(=O)NCCC(C)C [Example 145] shows solubility of 10 µg/mL or more.
Y

Say whether COc1nc2cc(N3CCOCC3)ccc2n1C(=O)NCCCC1(C(F)(F)F)CC1 [Example 183b] shows solubility of 10 µg/mL or more.
N

Say whether CN1CCN(c2ccc3ncn(C(=O)NCCc4ccccc4)c3c2)CC1 [Example 15b] shows solubility of 10 µg/mL or more.
Y

Say whether COc1nc2cc(N3CCC4(CC3)COC4)ccc2n1C(=O)NCCCc1ccccc1 [Example 238b] shows solubility of 10 µg/mL or more.
Y

Say whether CCCCNC(=O)n1c(OC)nc2nc(-c3cncnc3)ccc21 [Example 85b] shows solubility of 10 µg/mL or more.
Y

Say whether CN1CCN(CCOc2nc3ccccc3n2C(=O)NCC#Cc2ccccc2)CC1 [Example 348] shows solubility of 10 µg/mL or more.
N

Say whether CC(C)C#CCNC(=O)n1cnc2c(N3CC4CC3CN4C)cccc21 (centres unmarked) [Example 301] shows solubility of 10 µg/mL or more.
Y

Say whether COc1nc2cc(-c3cncnc3)ccc2n1C(=O)NCC(C)C [Example 81b] shows solubility of 10 µg/mL or more.
Y

Say whether O=C(NCCCc1ccccc1)n1cnc2c(CCCN3CCC3)cccc21 [Example 262] shows solubility of 10 µg/mL or more.
Y

Say whether COc1nc2ccc(N3CCOCC3)cc2n1C(=O)NCCCc1ccc(F)cc1F [Example 224a] shows solubility of 10 µg/mL or more.
N

Say whether CC(C)C#CCNC(=O)n1cnc2c(N3CCC4(CC3)CCN4C)cccc21 [Example 313] shows solubility of 10 µg/mL or more.
Y

Say whether CCN1CCN(c2cccc3c2ncn3C(=O)NCCCc2ccccc2)CC1 [Example 249] shows solubility of 10 µg/mL or more.
Y

Say whether CN1CCC(c2cc3ncn(C(=O)NCCc4ccccc4)c3cc2Cl)CC1 [Example 11b] shows solubility of 10 µg/mL or more.
Y

Say whether COc1nc2ccccc2n1C(=O)NCCCCn1ccc(C(C)(C)C)n1 [Example 187] shows solubility of 10 µg/mL or more.
Y

Say whether CN1CCN(c2cccc3c2ncn3C(=O)NCCOc2ccccc2)CC1 [Example 257] shows solubility of 10 µg/mL or more.
Y

Say whether COc1nc2cc(N3CCOCC3)ccc2n1C(=O)NCC1(CC2CC2)CC1 [Example 229b] shows solubility of 10 µg/mL or more.
N

Say whether CC(=O)N1CCN(c2cccc3c2ncn3C(=O)NCCCc2ccccc2)CC1 [Example 218] shows solubility of 10 µg/mL or more.
Y

Say whether COc1cccc2c1ncn2C(=O)NCCC(C)C [Example 98] shows solubility of 10 µg/mL or more.
Y

Say whether CN1CC2CCC1CN2c1cccc2c1ncn2C(=O)NCCCc1ccccc1 (centres unmarked) [Example 247] shows solubility of 10 µg/mL or more.
Y

Say whether CN(C)C1CN(c2cccc3c2ncn3C(=O)NCCC#Cc2ccccc2)C1 [Example 364] shows solubility of 10 µg/mL or more.
Y
